Molecular target: Beta-1 adrenergic receptor (Homo sapiens)
Sequence (P08588 whole entry): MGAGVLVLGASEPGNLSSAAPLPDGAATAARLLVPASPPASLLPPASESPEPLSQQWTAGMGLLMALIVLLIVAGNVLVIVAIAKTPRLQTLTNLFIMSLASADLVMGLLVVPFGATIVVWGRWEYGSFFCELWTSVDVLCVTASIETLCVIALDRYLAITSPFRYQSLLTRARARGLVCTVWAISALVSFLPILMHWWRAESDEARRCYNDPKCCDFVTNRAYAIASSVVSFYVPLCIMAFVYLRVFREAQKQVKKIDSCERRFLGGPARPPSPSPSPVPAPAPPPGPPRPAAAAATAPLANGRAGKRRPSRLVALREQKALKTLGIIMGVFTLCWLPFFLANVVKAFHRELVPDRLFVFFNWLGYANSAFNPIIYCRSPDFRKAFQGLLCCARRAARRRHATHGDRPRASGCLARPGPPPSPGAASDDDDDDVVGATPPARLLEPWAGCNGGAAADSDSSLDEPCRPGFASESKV
MEASUREMENT_NAME: IC50

Value lookup for IC50; key = Cc1ccc(NC(=O)C[C@H](CCC(=O)O)c2noc([C@H]3C[C@@H](CC(C)(C)C)C3)c2C2CC2)c(Cl)c1
> 10 µM

###

Test: Total body clearance in C57BL/6J mouse at 1 mg/kg, iv administered as single dose and measured after 24 hrs
Assay type: ADME, organism-based
Details: in vivo
MEASUREMENT_NAME: clearance (mL/min/kg)
Answers are plain numbers, in mL/min/kg.

Value lookup for clearance; key = Cc1ccc(NC(=O)C[C@H](CCC(=O)O)c2noc([C@H]3C[C@@H](CC(C)(C)C)C3)c2C2CC2)c(Cl)c1
0.5
